This section presents compounds with their documented area under dose-response curve values.
tested on: HL-60; assay: area under dose-response curve (viability, 1 nM-10 uM) (fraction (0-1)); higher = more sensitive; details: 72 h; co-treatment: DMSO vehicle
measured.metric: area under dose-response curve

>>> result("CC(/C=C1\\SC(=S)N(CC(=O)O)C1=O)=C\\c1ccccc1")
"< 0.0301"
>>> result("Cc1coc2c1C(=O)C(=O)c1c-2ccc2c(C)cccc12")
"< 0.0301"
>>> result("COc1c(C)c2c(c(O)c1C/C=C(\\C)CCC(=O)O)C(=O)OC2")
"< 0.0301"

* * *

test system: myeloid leukemia patient primary cells Pat.11; assay: area under dose-response curve (viability, 1 nM-10 uM) (fraction (0-1)); higher = more sensitive; settings: 72 h
measured.metric: area under dose-response curve

>>> result("Clc1ccc(COC(Cn2ccnc2)c2ccc(Cl)cc2Cl)cc1 (stereo not drawn) [Econazole]")
"< 0.0301"
>>> result("Sc1ncnc2nc[nH]c12 [6-mercaptopurine]")
"< 0.0301"
>>> result("CCOC(=O)N1c2ccc(C(F)(F)F)cc2[C@@H](N(Cc2cc(C(F)(F)F)cc(C(F)(F)F)c2)C(=O)OC)C[C@H]1CC [Torcetrapib]")
"< 0.0301"
